Source listed as PubChem BioAssay (NCATS).

target: Glucocorticoid receptor (Homo sapiens) (UniProt P04150); assay: GR-EFC Redistribution (AID 451); settings: CHO-K1 GR-EFC translocation, beta-gal luminescence, 2 h; further: potency means the concentration at half of the fitted maximal effect
Sequence (P04150 whole entry, looked up): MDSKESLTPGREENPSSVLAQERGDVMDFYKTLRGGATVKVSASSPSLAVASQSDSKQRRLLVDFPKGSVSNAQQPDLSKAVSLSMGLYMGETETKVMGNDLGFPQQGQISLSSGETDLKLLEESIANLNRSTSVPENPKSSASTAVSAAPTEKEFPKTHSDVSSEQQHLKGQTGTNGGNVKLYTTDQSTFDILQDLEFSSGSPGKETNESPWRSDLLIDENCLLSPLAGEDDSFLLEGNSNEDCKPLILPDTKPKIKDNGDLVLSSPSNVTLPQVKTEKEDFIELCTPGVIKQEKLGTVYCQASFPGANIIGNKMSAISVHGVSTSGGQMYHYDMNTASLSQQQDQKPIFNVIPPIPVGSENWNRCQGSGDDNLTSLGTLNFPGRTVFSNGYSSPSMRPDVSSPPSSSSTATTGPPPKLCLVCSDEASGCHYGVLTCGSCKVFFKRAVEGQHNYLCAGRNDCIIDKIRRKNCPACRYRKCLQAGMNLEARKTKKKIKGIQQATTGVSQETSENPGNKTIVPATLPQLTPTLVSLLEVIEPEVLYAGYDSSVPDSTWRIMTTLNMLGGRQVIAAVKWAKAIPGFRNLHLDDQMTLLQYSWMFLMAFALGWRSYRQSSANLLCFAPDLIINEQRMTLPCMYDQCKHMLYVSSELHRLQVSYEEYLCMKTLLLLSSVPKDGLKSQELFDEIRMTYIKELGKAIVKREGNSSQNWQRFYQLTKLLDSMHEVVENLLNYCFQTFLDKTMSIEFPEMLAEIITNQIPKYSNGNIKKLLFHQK
Calls of active or inactive are those of the source. The call rests on the fitted dose curve.
Outcomes: t (active), f (inactive)

• Cc1cc(=O)[nH]c2cc3oc4ccccc4c3cc12 = f
• O=C(O)[C@@H]1CS[C@@]2(CCCN(Cc3ccccc3)C2)N1 = f
• COC(=O)[C@H](N)Cc1ccc(Cl)cc1 = f
• CCN(CCO)C[C@H]1CCC[C@H]2CCCC[C@@H]21 = f
• COc1cc(NCC[C@@H]2CCCCN2)c2ncccc2c1 = f
• C=C1CC[C@H](O)C/C1=C/C=C1\CCC[C@]2(C)[C@H]1CC[C@H]2[C@@H](C)CCCC(C)C = f
• O=C(Nc1ccc2c(c1)Cc1ccccc1-2)[C@@H]1[C@H](C(=O)O)[C@]2(Cl)C(Cl)=C(Cl)[C@@]1(Cl)C2(Cl)Cl = f
• OC[C@@H]1O[C@@H](n2cnc3c(NC4CCCC4)ncnc32)[C@@H](O)[C@H]1O = f
• CN(C)[C@H]1C(=O)C(C(=O)NCN2CCCC2)=C(O)[C@]2(O)C(=O)C3=C(O)c4c(O)cccc4[C@](C)(O)[C@H]3C[C@H]12 = f
• Cc1cc2ccc(OC(=O)c3ccc(N=C(N)N)cc3)cc2oc1=O = f
• CC(CCC(=O)O)(c1cc(Br)c(O)c(Br)c1)c1cc(Br)c(O)c(Br)c1 = f
• O=[N+]([O-])c1ccc2c(c1)S(=O)c1ccccc1-2 (stereo not given) = f
• O=[N+]([O-])c1ccc2ncccc2c1CCc1c([N+](=O)[O-])ccc2ncccc12 = f
• O=C(O)C(Cl)(c1ccccc1)c1ccccc1 = f
• O=C(C[C@@H](c1ccccc1)N1CCCCC1)c1ccccc1 = f
• N[C@@H](C(=O)O)[C@@H]1C[C@H]1C(=O)O = f
• O=C(O)[C@@H]1[C@@H](C(=O)Nc2ccccc2)[C@@H]2C=C[C@@H]1O2 = f
• CN=C(N)/N=C(\N)Nc1cc2ccccc2c2ccccc12 = f
• O=C(O)c1ccncc1.O=C(O)c1ccncc1.[NH2-].[NH2-].[Pt] = f
• O=C(O)C(Cc1ccccc1-c1ccccc1)C(=O)O = f
• Cc1cc2cc3c(=O)[nH]c(=O)[nH]c3nc2cc1C = f
• C/C(=N\NC(=O)c1ccncc1)c1ccc2ccccc2c1O = f
• C[N+](C)(C)c1ccc([C@H](N)C(=O)O)cc1 = f
• NC(=O)C1=CN([C@@H]2O[C@@H](COP(=O)(O)OP(=O)(O)OC[C@@H]3O[C@H](n4cnc5c(N)ncnc54)[C@@H](OP(=O)(O)O)[C@@H]3O)[C@H](O)[C@@H]2O)C=CC1 = f
• N#CCCn1c(=O)c(-c2cc(F)cc(F)c2)nc2cnc(Oc3cccc(Cl)c3)nc21 = f
• O=c1ccc(-c2ccccc2)n[nH]1 = f
• CN(C)CCCN=C(N)N = f
• COc1ccc(CCN(C)CCC[C@@](C#N)(c2cc(OC)c(OC)c(OC)c2)C(C)C)cc1OC = f
• NC(N)=N/N=C\c1ccc(C2CCNCC2)cc1 = f
• C[C@@]12CCC(=O)C=C1CC[C@H]1[C@@H]2[C@@H](O)C[C@]2(C)[C@@H]1CC[C@@]2(O)C(=O)COC(=O)C1CCCC1 = t

* * *

target: Lysosomal acid glucosylceramidase (Homo sapiens) (UniProt P04062); assay: Glucocerebrosidase-p2 (AID 348); conditions: purified GBA, blue fluorogenic substrate, 40 min; further: potency means the concentration at half of the fitted maximal effect
Sequence (P04062 whole entry, looked up): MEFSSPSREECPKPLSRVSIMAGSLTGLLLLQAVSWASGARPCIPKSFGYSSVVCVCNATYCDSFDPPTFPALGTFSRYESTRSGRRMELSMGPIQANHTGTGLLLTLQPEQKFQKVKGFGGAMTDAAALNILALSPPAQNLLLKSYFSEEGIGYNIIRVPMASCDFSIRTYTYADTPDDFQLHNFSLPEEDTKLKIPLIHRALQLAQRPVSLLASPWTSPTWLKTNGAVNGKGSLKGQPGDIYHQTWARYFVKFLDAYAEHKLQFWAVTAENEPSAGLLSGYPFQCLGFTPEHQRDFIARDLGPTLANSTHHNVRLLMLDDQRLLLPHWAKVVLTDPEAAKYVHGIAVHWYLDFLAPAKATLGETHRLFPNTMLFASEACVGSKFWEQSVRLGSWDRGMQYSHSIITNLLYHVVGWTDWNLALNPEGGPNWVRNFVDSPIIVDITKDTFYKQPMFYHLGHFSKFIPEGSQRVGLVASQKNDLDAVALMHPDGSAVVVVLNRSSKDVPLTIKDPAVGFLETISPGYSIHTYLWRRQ
Calls of active or inactive are those of the source. No stated cut-off is given here; in the data, active means potency below about 10 µM; inactive means the rest.
Possible outcomes: TRUE (active), FALSE (inactive)

* NC(N)=Nc1ccc(-c2ccc(N=C(N)N)cc2)cc1 | FALSE
* C[C@H](OP(=O)(O)O)[C@H](N)C(=O)O | FALSE
* NC(=O)/N=C(\N)NC(=O)c1ccccc1 | FALSE
* Nc1nc(N)nc(CCCCc2nc(N)nc(N)n2)n1 | FALSE
* CCN(CC)CCN1c2ccccc2Sc2ccc3ccccc3c21 | FALSE
* N=C(N)C(N=Nc1ccccc1)C(=N)N (stereo not given) | FALSE
* CC(C)c1ccc(O)c(O)c(=O)c1 (tested in a mixture with another compound) | FALSE
* O=C1c2cccc(O)c2C(=O)c2c(O[C@@H]3O[C@H](CO)[C@@H](O)[C@H](O)[C@@H]3O)cccc21 | TRUE
* CC1(CC(=O)O)O[C@H]2CCCCC[C@H]2O1 (stereo not given in full) (tested in a mixture with another compound) | FALSE
* Cc1ccc([C@@]2(C)CC/C(=N/N=C3\CC[C@](C)(c4ccc(C)c(C)c4)c4cc(C)c(C)cc43)c3cc(C)c(C)cc32)cc1C | FALSE

* * *

target: Cytochrome P450 3A4 (Homo sapiens) (UniProt P08684); experiment: qHTS Assay for Activators of Cytochrome P450 3A4 (AID 885); details: recombinant CYP3A4, Luciferin-PPXE luminescence, 60 min; series mostly up to 11.4 µM; further: nearly all actives have a fitted effect of over 65% in size
Sequence (P08684 whole entry, looked up): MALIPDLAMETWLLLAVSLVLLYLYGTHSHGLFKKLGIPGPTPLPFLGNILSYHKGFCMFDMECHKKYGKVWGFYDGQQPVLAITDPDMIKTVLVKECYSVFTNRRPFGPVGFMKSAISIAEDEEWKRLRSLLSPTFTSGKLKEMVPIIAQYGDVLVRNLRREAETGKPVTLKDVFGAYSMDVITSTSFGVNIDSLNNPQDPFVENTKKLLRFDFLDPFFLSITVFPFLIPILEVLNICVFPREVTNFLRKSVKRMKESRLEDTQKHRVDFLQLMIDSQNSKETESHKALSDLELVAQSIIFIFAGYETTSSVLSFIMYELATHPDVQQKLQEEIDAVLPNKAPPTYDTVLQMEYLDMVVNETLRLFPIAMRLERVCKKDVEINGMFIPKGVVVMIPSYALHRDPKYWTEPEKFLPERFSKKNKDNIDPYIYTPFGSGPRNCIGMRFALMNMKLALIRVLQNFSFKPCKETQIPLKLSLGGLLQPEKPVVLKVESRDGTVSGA
The source made the active and inactive calls. Calls follow the shape of the dose curve; as a rule, active = well fitted activation curve with a large enough effect; inconclusive = small, poorly fitted or top-dose-only effect; inactive = no such curve, though single readings can be large or run the other way.
Outcome codes: Y = active, N = inactive

• NS(=O)(=O)c1ccc(N=Nc2nc3[nH]c(=O)[nH]c(=O)c3[nH]2)cc1 = N
• CN(C)C(=O)c1ccc(-c2nc(Nc3ccncc3)c3ccccc3n2)cc1 = N
• Cn1ncc2c(NCCc3ccccc3)nc(Cl)nc21 = N
• Nc1cccc(OCc2nc(N)nc(N)c2-c2ccc(Cl)cc2)c1 = N
• O=C(Nc1cccc(Cl)c1)Nn1cnnc1 = N
• CC[C@H]1CC[C@H]2[C@@H]3CC=C4C[C@H](OC(C)=O)[C@@H](N)C[C@@]4(C)[C@H]3CC[C@@]12C = N
• Nc1ccc2c(c1)C(=O)c1ccccc1C2=O = N
• CN1CCN(Cc2nc3cccc4c3c([n+]2[O-])-c2ccccc2-4)CC1 = N
• Cc1cc(C)cc(C(=N)c2ccccc2Cc2cccc3ccccc23)c1 = N
• CS(=O)(=O)Nc1cccc(-c2nc(NCc3cccnc3)c3ccccc3n2)c1 = N
• COc1ccc(-n2c(=O)c(C)nc3cnc(Nc4cccc(OC)c4)nc32)cc1 = N
• CCNC(=S)NCC = N
• Cc1ccc(Nc2nnc(-c3ccc4c(c3)OCO4)o2)c(C)c1 = N
• O=C(O)/C=C\c1cnc[nH]1 = N
• COc1ccccc1-c1ccc2ncnc(NCc3cccnc3)c2c1 = N
• Cc1c(Cl)cccc1NC(=O)C[C@H]1Sc2ccccc2NC1=O = N
• CC(=O)Nc1ccc2c(c1)C(=Nc1ccc(C(=O)O)cc1)c1ccccc1-2 = N
• CO[C@@H]1/C=C\O[C@@]2(C)Oc3c(C)c(O)c4c(c3C2=O)C(=N[C@H]2CC[C@H](O)O[C@@H]2C)C=C(NC(=O)/C(C)=C\C(=O)[C@@H]2C[C@@H]2[C@@H](O)[C@H](C)[C@@H](O)[C@H](C)[C@H](OC(C)=O)[C@@H]1C)C4=O = N
• CC(C)Cn1cnc2c(SCc3ccc(Cl)cc3Cl)nc(N)nc21 = N
• CC(CCC(=O)O)(c1ccc(O)cc1)c1ccc(O)cc1 = N
• ON(CCc1ccccn1)Cc1ccccc1 = N
• Cn1c(=O)c2[nH]c(CCCCc3nc4c([nH]3)c(=O)n(C)c(=S)n4C)nc2n(C)c1=S = N
• COc1ccc2c(c1)Cc1cc(N=[N+]([O-])c3ccc4c(c3)Cc3cc(OC)ccc3-4)ccc1-2 = N
• CN(C)C[C@H]1CCC[C@@H](CN(C)C)C1=O = N
• O[C@@H](C1=C/C(=C\c2ccncc2)c2ccccc21)c1ccncc1 = N
• Nc1ccccc1SCc1csc(-c2ccc(Cl)cc2)n1 = N
• N=C1C=CC(=C(c2ccc(N)cc2)c2ccc(N)cc2)C=C1 = N
• NS(=O)(=O)c1ccc(N=Nc2ncccc2O)cc1 = N
• CC(=O)OCC(=O)[C@]12OC(C)(C)O[C@@H]1C[C@H]1[C@H]3CC=C4C[C@@H](O)CC[C@]4(C)[C@H]3CC[C@]12C = Y
• COc1ccc(C(=O)N2CCC3(CCCN(C(=O)Nc4cccc(F)c4)C3)CC2)cc1 = N

* * *

experiment: Cell Viability - LYMP1-003 - Assay at 24 hr (AID 963); details: LYMP1-003 lymphoblastoid cell viability; series mostly up to 92.2 µM
The source made the active and inactive calls. Calls follow the shape of the dose curve; as a rule, active = well fitted cell-killing curve with a large enough effect; inconclusive = small, poorly fitted or top-dose-only effect; inactive = flat fitted curve, though single readings scatter.
Outcome codes: True (active), False (inactive)

* O=[N+]([O-])c1cc(Cl)c(Cl)c(Cl)c1Cl | False
* c1ccc(CSCc2ccccc2)cc1 | False
* Oc1cc(Cl)cc(Cl)c1Cl | False
* Nc1cc(C(=O)O)c(O)c(S(=O)(=O)O)c1 | False
* Nc1ccccc1O | False
* c1ccc2ncccc2c1 | False
* Cc1ccc(O)c(N)c1 | False
* Nc1ccc2c(c1)C(=O)c1ccccc1C2=O | False
* Nc1ccc(-c2ccc(N)c(O)c2)cc1O | False
* C=C(C#N)C(=O)OCC | False
* Cc1ccc2ccc3cccc4ccc1c2c34 | False
* S=C(NC1CCCCC1)NC1CCCCC1 | False
* C[C@@H]1CC2(OC(O)[C@]3(C)O[C@H]23)O[C@H]2C[C@@]3(C)[C@@H]4CC[C@H]5C(C)(C)C(O[C@@H]6OC[C@@H](O)[C@H](O)[C@H]6O)CC[C@@]56C[C@@]46CC[C@]3(C)[C@@H]12 (stereo partly specified) | False
* CCCCCCCC/C=C\CCCCCCCC(=O)N(CCO)CCO | False
* CCN(CC)c1ccc2c(C)cc(=O)oc2c1 | False
* Brc1cc(Oc2cc(Br)c(Br)c(Br)c2Br)c(Br)c(Br)c1Br | False
* Cc1c(N)cccc1Cl | False
* Brc1cc(Br)c(Oc2cc(Br)c(Br)cc2Br)cc1Br | False
* Cc1ccc(C(=O)O)cc1[N+](=O)[O-] | False
* O=C(O)/C=C/c1ccc(/C=C/C(=O)O)cc1 | False
* CN(C)c1ccc(Cc2ccc(N(C)C)cc2)cc1 | False
* CC(=O)OC(C(=O)c1ccccc1)c1ccccc1 (stereo unspecified) | False
* CC(=O)OC1CC(C)OC(C)O1 (stereo unspecified) | False
* O=C1OC(=O)c2ccccc21 | False
* Oc1ccc2c(c1)OCO2 | False
* N=C1C=CC(=C(c2ccc(N)cc2)c2ccc(N)cc2)C=C1 | True
* Nc1cnn([C@@H]2O[C@H](CO)[C@@H](O)[C@H]2O)c(=O)n1 | False
* c1ccncc1 | False
* Cc1cc(=O)oc2cc(O)cc(O)c12 | False
* O=C(OCc1ccccc1)c1ccccc1O | False
* O=[N+]([O-])c1cccc(I)c1 | False
